The listing below reports IC50 for molecules tested on EGFR (Homo sapiens (Human), UniProt P00533).
Sequence (P00533 25-1210): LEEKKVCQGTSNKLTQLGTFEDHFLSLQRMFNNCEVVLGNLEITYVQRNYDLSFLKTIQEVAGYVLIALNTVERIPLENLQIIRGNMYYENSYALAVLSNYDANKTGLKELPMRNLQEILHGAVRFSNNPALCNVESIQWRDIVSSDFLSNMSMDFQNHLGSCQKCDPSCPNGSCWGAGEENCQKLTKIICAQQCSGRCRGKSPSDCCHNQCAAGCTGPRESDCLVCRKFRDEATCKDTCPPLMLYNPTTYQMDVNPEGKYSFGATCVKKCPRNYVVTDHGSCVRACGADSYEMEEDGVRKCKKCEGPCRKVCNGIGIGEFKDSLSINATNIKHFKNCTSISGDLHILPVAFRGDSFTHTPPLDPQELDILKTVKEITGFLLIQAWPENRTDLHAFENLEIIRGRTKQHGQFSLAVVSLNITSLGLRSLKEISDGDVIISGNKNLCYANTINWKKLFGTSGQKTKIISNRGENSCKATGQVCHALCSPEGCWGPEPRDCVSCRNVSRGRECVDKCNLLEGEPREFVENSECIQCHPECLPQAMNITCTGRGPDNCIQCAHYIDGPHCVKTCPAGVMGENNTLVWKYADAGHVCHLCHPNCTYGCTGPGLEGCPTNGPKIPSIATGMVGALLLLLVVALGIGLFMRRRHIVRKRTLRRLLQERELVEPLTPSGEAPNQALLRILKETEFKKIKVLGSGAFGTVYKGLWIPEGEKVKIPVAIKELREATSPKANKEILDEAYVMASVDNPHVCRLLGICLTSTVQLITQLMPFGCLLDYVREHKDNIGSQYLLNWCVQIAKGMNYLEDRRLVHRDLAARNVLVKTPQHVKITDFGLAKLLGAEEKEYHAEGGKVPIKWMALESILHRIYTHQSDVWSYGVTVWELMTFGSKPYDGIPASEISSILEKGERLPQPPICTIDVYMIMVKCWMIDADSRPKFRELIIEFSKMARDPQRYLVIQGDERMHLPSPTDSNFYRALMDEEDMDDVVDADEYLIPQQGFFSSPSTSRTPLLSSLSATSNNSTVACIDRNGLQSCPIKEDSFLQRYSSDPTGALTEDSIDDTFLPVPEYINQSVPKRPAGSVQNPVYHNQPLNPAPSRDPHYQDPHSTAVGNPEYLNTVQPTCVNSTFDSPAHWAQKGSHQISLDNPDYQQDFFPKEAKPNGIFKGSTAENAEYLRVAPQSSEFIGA

molecule: CO[C@@H]1CCN(c2ncc3ncnc(Nc4ccc(Oc5ccn6ncnc6c5)c(C)c4)c3n2)C1 [Example 395]
IC50: ≥ 10 µM

molecule: Cc1cc(Nc2ncnc3cnc(N(C)CC4COC4)nc23)ccc1Oc1ccc2c(c1)ncn2C [Example 402]
IC50: ≥ 10 µM

molecule: Cc1cc(Nc2ncnc3cnc(N4C[C@H](O)C(F)(F)C4)nc23)c(F)cc1Oc1ccc2c(c1)ncn2C [Example 202]
IC50: ≥ 10 µM

molecule: OC1(CNc2ncc3ncnc(Nc4ccc(Oc5ccn6ncnc6c5)c(Cl)c4)c3n2)COC1 [Example 326]
IC50: 2.34 µM

molecule: Cc1cc(Nc2ncnc3cnc(N4CC[C@@H](C(C)(C)O)C4)nc23)ccc1Oc1ccn2ncnc2c1 [Example 124]
IC50: 2.75 µM

molecule: Cc1cc(Nc2ncnc3cnc(N4CCC(F)(F)C4)nc23)ccc1Oc1ccc2c(c1)ncn2C [Example 299]
IC50: ≥ 10 µM

molecule: Clc1cc(Nc2ncnc3cnc(N4CCC5COCC54)nc23)ccc1Oc1ccn2ncnc2c1 (centres unmarked) [Example 377]
IC50: 1.41 µM

molecule: Cc1cc(Nc2ncnc3cnc(N4C[C@H]5CCCN5C4=O)nc23)ccc1Oc1ccc2c(c1)ncn2C [Example 66]
IC50: ≥ 10 µM

molecule: Cc1cc(Nc2ncnc3cnc(N(C)[C@H]4C[C@@H](C(C)(C)O)C4)nc23)ccc1Oc1ccc2c(c1)ncn2C [Example 467]
IC50: 4.79 µM

molecule: Cc1cc(Nc2ncnc3cnc(NC45CC(C4)C5)nc23)ccc1Oc1ccc2c(c1)ncn2C [Example 18]
IC50: ≥ 10 µM

molecule: Cc1cc(Nc2ncnc3cnc(N4CC[C@H]4C(F)F)nc23)ccc1Oc1ccn2ncnc2c1 [Example 390]
IC50: 3.98 µM

molecule: Cc1cc(Nc2ncnc3cnc(N4CC[C@@](C)(O)C4)nc23)ccc1Oc1ccc2c(c1)ncn2C [Example 154]
IC50: 1.94 µM

molecule: Cc1cc(Nc2ncnc3cnc(-c4cnsc4)nc23)ccc1Oc1ccc2c(c1)ncn2C [Example 228]
IC50: ≥ 10 µM

molecule: Cc1cc(Nc2ncnc3cnc(N4CCC(C)(C#N)C4)nc23)ccc1Oc1ccc2c(c1)ncn2C (centres unmarked) [Example 475]
IC50: ≥ 10 µM

molecule: CC1(O)CN(c2ncc3ncnc(Nc4ccc(Oc5ccn6ncnc6c5)c(Cl)c4)c3n2)C1 [Example 324]
IC50: ≥ 10 µM

molecule: Cc1cc(Nc2ncnc3cnc(N4C[C@]5(CCOC5)CC4=O)nc23)ccc1Oc1ccc2c(c1)ncn2C [Example 391]
IC50: ≥ 10 µM

molecule: Cc1cc(Nc2ncnc3cnc(N4CC5(CCC5O)C4)nc23)ccc1Oc1ccc2c(c1)ncn2C (centres unmarked) [Example 465]
IC50: ≥ 10 µM

molecule: CN(C)c1ncc2ncnc(Nc3ccc(Oc4ccn5ncnc5c4)c(Cl)c3)c2n1 [Example 396]
IC50: ≥ 10 µM

molecule: Cn1cnc2cc(Oc3ccc(Nc4ncnc5cnc(N6CCN(C7COC7)CC6)nc45)cc3Cl)ccc21 [Example 485]
IC50: ≥ 10 µM

molecule: Cc1cc(Nc2ncnc3cnc(N4CC(C(F)F)C4)nc23)ccc1Oc1ccc2c(c1)ncn2C [Example 37]
IC50: ≥ 10 µM

* * *

molecular target: ErbB2 WT (Homo sapiens (Human)); experiment: ErbB enzyme assay (CisBio HTRF KinEASE-TK), Assay 2; format: biochemical
Sequence (P04626 23-1255): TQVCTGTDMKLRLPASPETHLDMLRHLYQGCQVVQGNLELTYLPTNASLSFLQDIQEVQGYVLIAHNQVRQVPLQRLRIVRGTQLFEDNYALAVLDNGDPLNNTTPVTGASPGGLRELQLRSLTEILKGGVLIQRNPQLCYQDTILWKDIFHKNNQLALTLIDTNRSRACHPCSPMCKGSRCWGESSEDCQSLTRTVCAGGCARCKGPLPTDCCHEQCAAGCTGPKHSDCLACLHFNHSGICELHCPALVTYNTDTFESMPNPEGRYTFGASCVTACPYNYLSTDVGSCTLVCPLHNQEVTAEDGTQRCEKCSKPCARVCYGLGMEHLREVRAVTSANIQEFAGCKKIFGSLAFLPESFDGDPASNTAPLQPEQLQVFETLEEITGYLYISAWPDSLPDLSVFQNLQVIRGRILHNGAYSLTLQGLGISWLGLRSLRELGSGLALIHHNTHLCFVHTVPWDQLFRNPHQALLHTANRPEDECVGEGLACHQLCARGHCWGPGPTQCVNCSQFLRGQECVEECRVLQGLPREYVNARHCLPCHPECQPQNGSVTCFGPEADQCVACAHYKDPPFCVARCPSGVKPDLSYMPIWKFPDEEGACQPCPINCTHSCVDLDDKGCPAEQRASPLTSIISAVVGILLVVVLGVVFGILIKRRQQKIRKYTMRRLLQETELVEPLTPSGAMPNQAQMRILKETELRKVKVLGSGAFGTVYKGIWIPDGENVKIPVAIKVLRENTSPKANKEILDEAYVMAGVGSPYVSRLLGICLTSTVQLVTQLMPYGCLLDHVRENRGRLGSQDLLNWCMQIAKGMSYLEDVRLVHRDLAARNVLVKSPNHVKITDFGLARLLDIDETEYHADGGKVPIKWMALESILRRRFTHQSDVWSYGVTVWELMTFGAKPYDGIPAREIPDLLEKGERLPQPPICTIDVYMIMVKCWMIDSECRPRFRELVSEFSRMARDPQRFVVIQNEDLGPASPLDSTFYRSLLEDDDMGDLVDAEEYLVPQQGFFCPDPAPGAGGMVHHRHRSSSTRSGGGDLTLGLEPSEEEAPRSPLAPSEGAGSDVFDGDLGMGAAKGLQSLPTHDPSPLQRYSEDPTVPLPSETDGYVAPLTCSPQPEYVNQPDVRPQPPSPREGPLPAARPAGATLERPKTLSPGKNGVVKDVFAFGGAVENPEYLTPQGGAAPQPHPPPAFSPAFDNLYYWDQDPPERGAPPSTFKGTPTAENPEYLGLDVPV
Entries are grouped by IC50 into these classes: Low: < 30 nM; Mid: ≥ 30 nM and < 50 nM; High: ≥ 50 nM

molecule: CN(c1ncc2ncnc(Nc3ccc(Oc4ccc5c(c4)ncn5C)c(Cl)c3)c2n1)C1COC1 [Example 123]
cat: High
//
molecule: Cc1cc(Nc2ncnc3cnc(N(C)C)nc23)ccc1Oc1ccc2c(c1)ncn2C [Example 3, 2,2,2-trifluoroacetate]
cat: High
//
molecule: CCNc1ncc2ncnc(Nc3ccc(Oc4ccc5c(ccn5C)c4)c(C)c3)c2n1 [Example 269]
cat: Low
//
molecule: Cc1cc(Nc2ncnc3cnc(N4CCC[C@H]4C(C)(C)O)nc23)ccc1Oc1ccc2c(c1)ncn2C [Example 408]
cat: High
//
molecule: Cn1cnc2cc(Oc3ccc(Nc4ncnc5cnc(N6CC[C@@H](C#N)C6)nc45)cc3Cl)ccc21 [Example 444]
cat: High
//
molecule: Cc1cc(Nc2ncnc3cnc(N4CCC[C@@](C)(O)C4)nc23)ccc1Oc1ccn2ncnc2c1 [Example 414]
cat: Low
//
molecule: Cc1cc(Nc2ncnc3cnc(N4CCC[C@@](C)(O)C4)nc23)c(F)cc1Oc1ccc2c(c1)ncn2C [Example 218]
cat: Mid
//
molecule: CC(=O)N1CCN(c2ncc3ncnc(Nc4ccc(Oc5ccc6c(c5)ncn6C)c(C)c4)c3n2)CC1 [Example 24]
cat: Mid
//
molecule: Cc1cc(Nc2ncnc3cnc(N(C)CC4(O)CCC4)nc23)ccc1Oc1ccc2c(c1)ncn2C [Example 164]
cat: High
//
molecule: CON1CCC(Nc2ncc3ncnc(Nc4ccc(Oc5ccc6c(c5)ncn6C)c(C)c4)c3n2)C1 (stereo not shown) [Example 220]
cat: Low
//
molecule: Cc1cc(Nc2ncnc3cnc(N4CC[C@H](F)[C@@H](O)C4)nc23)ccc1Oc1ccc2c(c1)ncn2C [Example 162]
cat: Mid
//
molecule: Cc1cc(Nc2ncnc3cnc(N4CCN5C(=O)COC[C@H]5C4)nc23)ccc1Oc1ccc2c(c1)ncn2C [Example 346]
cat: High
